Below: a set of entries, each annotated with reported growth inhibition.
assay-summary: NCI Yeast Anticancer Drug Screen. Data for the cln2 rad14 strain (AID 165);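 further: 0% = growth equal to vehicle treated cultures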
stated-conditions: S. cerevisiae cln2 rad14 strain, at 50.0 µM, active compounds read high
This is part of a sample that, as a whole, favours compounds with a hit. Of some 79,000 tested, about 15% had one in any assay.
// note: answer is a bare numeric in %

Worked set:
compound: O=C(O)CC1CC(=O)c2cccn21 (stereo not given)
measure-unit: %
observed-value: 3.6
--
compound: CC1CC(=O)N2CCCNC2=C1C#N (stereo not given)
measure-unit: %
observed-value: 19.2
--
compound: CCN(CC)CCOc1cc(C)ccc1C(C)C
measure-unit: %
observed-value: -32

What the record says about C/C(=N\NC(=S)Nc1cccc2cccc(S(=O)(=O)O)c12)c1ccccn1 : growth inhibition is -5.55

Quick note, growth inhibition for C=CCOC/C=C\CCOCC/C=C/COCC=C (tested in a mixture with another compound) landed at -13.6

###

assay-summary: NCI Yeast Anticancer Drug Screen. Data for the mlh1 rad18 strain (AID 175)
stated-conditions: S. cerevisiae mlh1 rad18 strain growth inhibition; at 50.0 µM; active compounds read high
About 79,000 compounds went through this panel and 15% of them were active in at least one assay; those are over-represented in the sample as a whole.
The reader will find reported growth inhibition values listed item by item below.
Hi! Could you send only the number? It should be in %, unit omitted.

// solved cases for growth inhibition follow
structure-smiles: COCc1ccnn1-c1ccccc1C
observed-value: -6.05

structure-smiles: O=C(O)c1c(Br)c(Br)c(Br)c(Br)c1C(=O)Nc1cccc2c(O)cccc12
observed-value: 44.9

// recorded growth inhibition for CC(C)c1ccc(/C=C2/C=C(c3ccc4ccccc4c3)OC2=O)cc1 : -18.9

growth inhibition reported for this molecule CC(C)(CCCCC(C)(C)C1NC(=O)N1)C1NC(=O)N1 : -43.1

###

assay-summary: NCI Yeast Anticancer Drug Screen. Data for the mlh1 rad18 strain (AID 175)
stated-conditions: S. cerevisiae mlh1 rad18 strain growth inhibition; at 50.0 µM; active compounds read high
Compounds without any hit were thinned out: in the full panel of roughly 79,000, 15% have a hit.
Param threshold (10%) applies to growth inhibition; output true when value >= threshold, false when value < threshold.

# example entries with known answers
molecule: CC(C)(O)C(O)COc1c2c(cc3oc(=O)ccc13)OCO2 (stereo unspecified)
assigned-label: true
//
molecule: CS/N=C(\c1ccccc1)N(C)C
assigned-label: false
//
molecule: Cc1ncc(CO)c(/C=N\Nc2ccc([N+](=O)[O-])cc2[N+](=O)[O-])c1O
assigned-label: true
//
molecule: CC(C)c1cccc2ccccc12
assigned-label: true
//
molecule: CC(=O)n1[nH]c(=O)n(-c2ccccc2)c1=O
assigned-label: false

Query: # bool: growth inhibition of Clc1ccc(Cl)c(-c2csc(-c3cccnc3)n2)c1 >= 10%
Result: true

Query: Would you say Cc1ccccc1C(=O)OCC(=O)c1ccc(-c2ccccc2)cc1 shows growth inhibition at minimum 10%?
Result: false

Query: Is reported growth inhibition greater than or equal to 10% here: O=[N+]([O-])c1ccc(/C(=C/c2ccc(F)cc2)S(=O)(=O)c2ccccc2)o1
Result: true

Query: Check if growth inhibition >= 10% (inclusive). Item: CCOC(=O)C1CCC/C1=N/Nc1ccc([N+](=O)[O-])cc1[N+](=O)[O-] (stereo unspecified)
Result: false
